# STUDY_TARGET: visual cycle isomerase (Bos taurus, UniProt Q28175)
# Construct: Bovine Retinal Pigment Epithelium (RPE) microsome membranes were the source of a visual cycle isomerase; from tissue; host or cells: bovine retinal pigment epithelium microsome membranes; CRALBP made in E. coli
# Sequence (Q28175 2-533 limits assumed): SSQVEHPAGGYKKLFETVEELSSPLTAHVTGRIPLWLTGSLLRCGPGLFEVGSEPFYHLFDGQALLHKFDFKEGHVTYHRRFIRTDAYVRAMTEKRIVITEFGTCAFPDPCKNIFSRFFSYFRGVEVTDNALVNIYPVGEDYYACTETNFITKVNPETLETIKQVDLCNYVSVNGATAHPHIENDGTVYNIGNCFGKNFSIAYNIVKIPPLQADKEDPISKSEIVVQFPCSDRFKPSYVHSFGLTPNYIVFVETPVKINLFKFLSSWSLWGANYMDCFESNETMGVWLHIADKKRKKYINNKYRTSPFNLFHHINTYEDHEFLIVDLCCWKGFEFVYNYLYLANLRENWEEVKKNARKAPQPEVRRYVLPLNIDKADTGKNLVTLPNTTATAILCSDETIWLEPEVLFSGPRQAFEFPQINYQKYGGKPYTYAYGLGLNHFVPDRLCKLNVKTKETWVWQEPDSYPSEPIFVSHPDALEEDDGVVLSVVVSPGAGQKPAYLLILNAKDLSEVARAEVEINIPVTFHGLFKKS
# PROTOCOL_DETAILS: In vitro isomerase inhibition assay, bovine RPE microsome membranes
# Format: biochemical
# RUN_PARAMETERS: inhibition of 11-cis retinol formation; values given as ranges
ENDPOINT: IC50

Value sought for every listed compound: IC50.
1. Cc1ccccc1CCc1cccc(CCCN)c1
2. COCCCCCCc1cccc(CCCN)c1
3. Cc1cccc(C)c1NC(=O)c1cccc(CCCN)c1
4. CCCC(O)(CCC)CCc1cccc(OCCN)c1
5. NCCC(O)c1cccc(CCCc2ccccc2)c1 (stereo not shown)
6. NCCOc1cccc(CCc2ccccn2)c1
7. NCCC(O)c1cccc(CCC2(O)CCCCCC2)c1 (stereo not shown)
8. NCCCc1cccc(CCC2CCCC2)c1

1. 1 to 10 µM
2. ≤ 1 µM
3. 100 to 1000 µM
4. ≤ 1 µM
5. ≤ 1 µM
6. 1 to 10 µM
7. ≤ 1 µM
8. ≤ 1 µM

* * *

# STUDY_TARGET: isomerase (Mus musculus)
# Construct: The recovery of 11-cis-retinal after bleaching can be used to estimate the activity of isomerase in vivo; from tissue; host or cells: eye (RPE) of living CD-1 albino male mice
# Sequence (Q91ZQ5 whole entry): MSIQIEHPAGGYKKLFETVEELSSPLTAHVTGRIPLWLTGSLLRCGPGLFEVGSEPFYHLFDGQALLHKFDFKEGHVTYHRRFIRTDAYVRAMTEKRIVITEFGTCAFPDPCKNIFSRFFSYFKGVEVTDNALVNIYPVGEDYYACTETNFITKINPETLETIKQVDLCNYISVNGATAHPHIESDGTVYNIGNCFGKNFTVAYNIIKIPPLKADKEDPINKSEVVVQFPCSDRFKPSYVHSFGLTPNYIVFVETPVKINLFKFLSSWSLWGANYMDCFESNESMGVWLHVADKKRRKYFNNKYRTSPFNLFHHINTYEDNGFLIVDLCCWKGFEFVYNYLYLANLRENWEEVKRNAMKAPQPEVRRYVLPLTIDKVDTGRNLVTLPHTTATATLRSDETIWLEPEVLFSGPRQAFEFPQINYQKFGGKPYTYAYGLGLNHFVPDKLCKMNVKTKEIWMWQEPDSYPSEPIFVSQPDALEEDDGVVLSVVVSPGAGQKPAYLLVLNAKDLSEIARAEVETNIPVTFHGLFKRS
# PROTOCOL_DETAILS: In vivo murine isomerase assay (recovery of 11-cis-retinal after photobleaching)
# Set-up: species or system CD-1 (albino) male mice
# RUN_PARAMETERS: CD1 male mice, single oral dose 1 mg/kg, photobleaching 4 h post dosing
Assign labels as follows, please: Satisfied for % Inhibition 1 mg/kg 4 h below 20%; Not satisfied for % Inhibition 1 mg/kg 4 h equal to or exceeding 20%.

Example results:
NCCOc1cccc(CCC2(O)CCSCC2)c1	Satisfied
CCCC(C)(O)CCc1cccc(C(O)CCN)c1 (stereo not drawn)	Not satisfied
NCC#Cc1cccc(CS(=O)(=O)C2CCCCC2)c1	Satisfied
NCCOc1cccc(CCC2(O)CCCCCC2)c1	Satisfied
NCCC(O)c1cccc(CCc2ccccc2)c1 (stereo not drawn)	Not satisfied
NCCCc1cccc(CCC2(O)CCCCCC2)c1	Satisfied

Below 20% on % Inhibition 1 mg/kg 4 h? Entry CCCC(O)(CCC)CCc1cc(C(O)CCN)ccc1F (stereo not drawn) Not satisfied

Quick check: does `CC(C)(C)CCc1cccc(CCCN)c1` have % Inhibition 1 mg/kg 4 h under 20%? Satisfied

For `NCCCc1cccc(CCCCc2ccccc2)c1` , is the recorded % Inhibition 1 mg/kg 4 h below the cut-off of 20%? Satisfied

Does `NCCOc1cccc(CCC2(O)CCCCC2)c1` have % Inhibition 1 mg/kg 4 h strictly under 20%? Not satisfied

I'd appreciate it if you could check whether CCC(O)(CC)CCc1cccc(C(O)CCN)c1 (stereo not drawn) has % Inhibition 1 mg/kg 4 h smaller than 20%. Not satisfied

Is 20% strictly greater than the compound's reported % Inhibition 1 mg/kg 4 h? compound: `CCCC(O)(CCC)CCc1cccc([C@@H](O)CCN)c1` Not satisfied

I wonder whether NCCOc1cccc(CCC2CCCCC2O)c1 (stereo not drawn) has % Inhibition 1 mg/kg 4 h below 20%. Can you tell? Not satisfied

Threshold test, % Inhibition 1 mg/kg 4 h < 20%: `NCCCc1cccc(CCC2(O)CCCCC2)c1` Not satisfied

Is it true that % Inhibition 1 mg/kg 4 h reported for NCCOc1cccc(C(=O)NC2CCCCC2)c1 [Example 164, 3-(2-aminoethoxy)-N-cyclohexylbenzamide] is less than 20%? Satisfied
